Data credit: PubChem BioAssay AID1963832

tested on: 885724-159-R-J1-PDC complex spheroid viability; experiment: Anticancer human tumor 885724-159-R-J1-PDC patient-derived pancreatic adenocarcinoma cell line growth inhibition [POLQ]; settings: second compound 3.16 µM; first compound 0.0316 µM; hits give low values
MEASURED_ENDPOINT: viability, T/C (%)
One number for each entry, in %.

| COMPOUND | UOM | viability, T/C |
| --- | --- | --- |
| CC(C)n1c(=O)n(C)c2cnc3cc(F)c(-c4ccc(OCCCN5CCCCC5)nc4)cc3c21 + COC1C(OC(N)=O)C(O)C(Oc2ccc3c(O)c(NC(=O)c4ccc(O)c(CC=C(C)C)c4)c(=O)oc3c2C)OC1(C)C | % | 99.5 |
| Cn1ncnc1[C@H]1c2n[nH]c(=O)c3cc(F)cc(c23)N[C@@H]1c1ccc(F)cc1 + Cc1cccc(N(C)C(=O)C2C(O)CCN2c2nc(C)cc(C(F)(F)F)c2C#N)c1 | % | 88.6 |

Let's switch to this compound now.
Short answer on 885724-159-R-J1-PDC complex spheroid viability for COc1cc2cc(C(=O)CCC(=O)O)sc2cc1OC + Cc1cccc(N(C)C(=O)C2C(O)CCN2c2nc(C)cc(C(F)(F)F)c2C#N)c1 , viability, T/C: 116

----------
tested on: 885724-159-R-J1-PDC complex spheroid viability; assay: Anticancer human tumor 885724-159-R-J1-PDC cell line growth inhibition [POLQ]; conditions: second compound 0.0316 µM; first compound 1 µM; hits give low values;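 further: spheroids exposed to compounds for 7 days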
MEASURED_ENDPOINT: viability, T/C (%)
Give bare numbers, in %.

// for each compound below, give its viability, T/C
1. C=CC(=O)N1CCN(c2nc(=O)n(-c3c(C)ccnc3C(C)C)c3nc(-c4c(O)cccc4F)c(F)cc23)C(C)C1 (stereo unspecified) + Nc1ccc(C#CCN(C(=O)Cc2ncc(C(F)(F)F)cc2C(F)(F)F)c2ccc(F)cc2)nn1
2. C#Cc1c(F)ccc2cc(O)cc(-c3ncc4c(N5CC6CCC(C5)N6)nc(OCC56CCCN5CC(F)C6)nc4c3F)c12 (stereo unspecified) + Nc1ccc(C#CCN(C(=O)Cc2ncc(C(F)(F)F)cc2C(F)(F)F)c2ccc(F)cc2)nn1
3. C#Cc1c(F)ccc2cc(O)cc(-c3ncc4c(N5CC6CCC(C5)N6)nc(OCC56CCCN5CC(F)C6)nc4c3F)c12 (stereo unspecified) + Cc1cccc(N(C)C(=O)C2C(O)CCN2c2nc(C)cc(C(F)(F)F)c2C#N)c1

[106, 64.2, 72]

Provide the reported viability, T/C of each entry below, same order.
1. COc1cccc(OCCCN)c1-c1cc(Nc2cnc(C#N)cn2)n[nH]1 + Cc1cccc(N(C)C(=O)C2C(O)CCN2c2nc(C)cc(C(F)(F)F)c2C#N)c1
2. CCc1cc2c(N3CCc4c(cc(Cn5ccnc5)cc4-c4cn(C)nc4C(F)(F)F)C3=O)ccnc2c(OC)n1 + Cc1cccc(N(C)C(=O)C2C(O)CCN2c2nc(C)cc(C(F)(F)F)c2C#N)c1
3. CCc1cc2c(N3CCc4c(cc(Cn5ccnc5)cc4-c4cn(C)nc4C(F)(F)F)C3=O)cc(C)nc2c(OC)n1 + Cc1cccc(N(C)C(=O)C2C(O)CCN2c2nc(C)cc(C(F)(F)F)c2C#N)c1
4. CC(C)n1c(=O)n(C)c2cnc3cc(F)c(-c4ccc(OCCCN5CCCCC5)nc4)cc3c21 + Cc1cccc(N(C)C(=O)C2C(O)CCN2c2nc(C)cc(C(F)(F)F)c2C#N)c1
5. O=C(Nc1ccc(O)c(NS(=O)(=O)c2ccc(F)cc2)c1)c1ccc(-c2ccccc2)cc1 + COC1C(OC(N)=O)C(O)C(Oc2ccc3c(O)c(NC(=O)c4ccc(O)c(CC=C(C)C)c4)c(=O)oc3c2C)OC1(C)C

[45.6, 89.2, 75.2, 97.8, 102]

Go through the items and report each one's viability, T/C.
1. COc1cc2cc(C(=O)CCC(=O)O)sc2cc1OC + Cc1cccc(N(C)C(=O)C2C(O)CCN2c2nc(C)cc(C(F)(F)F)c2C#N)c1
2. Nc1ccn(C2OC(CO)C(O)C2(F)F)c(=O)n1 (stereo unspecified) + Cc1cccc(N(C)C(=O)C2C(O)CCN2c2nc(C)cc(C(F)(F)F)c2C#N)c1
3. CCc1cc2c(N3CCc4c(cc(Cn5ccnc5)cc4-c4cn(C)nc4C(F)(F)F)C3=O)ccnc2c(OC)n1 + Nc1ccc(C#CCN(C(=O)Cc2ncc(C(F)(F)F)cc2C(F)(F)F)c2ccc(F)cc2)nn1

1. 103
2. 52.1
3. 90
